Taken from ChEMBL document CHEMBL6134833.

- target under test: Cyclin-dependent kinase 2/cyclin A (Homo sapiens)
- test name: Inhibition of CDK2/Cyclin A (unknown origin)
parameter: IC50

Per the records, this compound ( `NC(=O)c1cc(-c2ccncc2)[nH]c1-c1ccccc1` ) has IC50 equal to 1100 nM

----------
- test name: Inhibition of MCM2 (unknown origin)
- Set-up: species or system Homo sapiens
parameter: pIC50
Numbers only, as −log10 of the molar value.

Per the records, this molecule ( `Cc1n[nH]cc1-c1cc2nc([C@@H]3CCCCN3)[nH]c(=O)c2s1` ) has pIC50 equal to 7.44

----------
- target under test: Cell division cycle 7-related protein kinase (Homo sapiens, UniProt O00311)
- Sequence (O00311 whole entry, the tested form may be a part): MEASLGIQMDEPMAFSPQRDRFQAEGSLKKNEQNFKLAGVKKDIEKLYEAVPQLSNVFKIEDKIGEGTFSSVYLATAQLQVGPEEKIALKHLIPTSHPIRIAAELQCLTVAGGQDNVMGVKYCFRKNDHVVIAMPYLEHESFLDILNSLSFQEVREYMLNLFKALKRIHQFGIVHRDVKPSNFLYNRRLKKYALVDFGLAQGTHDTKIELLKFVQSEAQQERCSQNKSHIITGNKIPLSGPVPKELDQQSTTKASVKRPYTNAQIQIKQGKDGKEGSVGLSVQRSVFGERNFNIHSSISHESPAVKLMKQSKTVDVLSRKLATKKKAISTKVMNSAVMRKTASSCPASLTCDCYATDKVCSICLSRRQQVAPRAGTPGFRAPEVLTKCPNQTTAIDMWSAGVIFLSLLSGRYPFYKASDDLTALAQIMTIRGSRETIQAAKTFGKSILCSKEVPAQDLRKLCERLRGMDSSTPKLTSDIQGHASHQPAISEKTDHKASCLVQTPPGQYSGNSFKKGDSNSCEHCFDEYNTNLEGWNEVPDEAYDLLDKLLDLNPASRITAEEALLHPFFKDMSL
- test name: Inhibition of GST full length human CDC7 (1 to 574 residues) expressed in baculovirus expression system
parameter: pIC50
Give bare numbers, as −log10 of the molar value.

Per the records, this compound ( `Cn1nccc1-c1nc(C2CCOCC2)c(Cl)c(=O)[nH]1` ) has pIC50 equal to 7.04
